Every entry's value here was drawn from patent US8450331B2.

# TARGET OR TEST SYSTEM: CYP2C9 (Homo sapiens, UniProt P11712)
# Construct: human liver microsomes (0.4 mg/ml); from tissue; host or cells: human liver microsomes
# Sequence (P11712 whole entry): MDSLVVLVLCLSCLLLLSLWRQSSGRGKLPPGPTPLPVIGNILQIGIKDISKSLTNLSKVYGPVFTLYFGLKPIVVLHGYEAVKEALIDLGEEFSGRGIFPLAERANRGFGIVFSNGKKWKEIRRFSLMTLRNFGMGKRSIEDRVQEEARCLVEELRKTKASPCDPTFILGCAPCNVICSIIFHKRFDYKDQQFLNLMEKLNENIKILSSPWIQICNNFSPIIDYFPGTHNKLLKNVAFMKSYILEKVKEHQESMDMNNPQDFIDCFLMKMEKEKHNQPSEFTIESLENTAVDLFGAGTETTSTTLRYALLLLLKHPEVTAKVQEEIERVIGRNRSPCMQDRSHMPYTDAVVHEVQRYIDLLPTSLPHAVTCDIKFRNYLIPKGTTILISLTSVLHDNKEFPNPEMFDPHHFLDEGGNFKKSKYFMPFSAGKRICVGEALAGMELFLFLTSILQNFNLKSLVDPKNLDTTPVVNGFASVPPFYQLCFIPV
# PROTOCOL: CYP inhibition assay, human liver microsomes, CYP2C9
# Assay type: in vitro ADME
# CONDITION LABEL: co-incubation, tolbutamide substrate, read-out: CYP 2C9 IC50 co
RECORDED METRIC: pIC50
The quantity pIC50 is defined as the negative base-10 logarithm of the molar concentration.

The examples below pair each entry with its known result.
CCCc1nc(N2C[C@H]3C(=O)N(C)C(=N)N[C@@]3(c3ccc(Cl)s3)C2)nc(OC)c1F    5.10
[H]/N=C1\N[C@@]2(c3ccc(C#N)s3)CN(c3nc(C)c(F)c(OC)n3)C[C@H]2C(=O)N1C    4.63
CCc1nc(N2C[C@H]3C(=O)N(C)C(=N)N[C@@]3(c3ccc(Cl)s3)C2)nc(OC)c1F    5.10

input: I would be grateful if you could share the reported pIC50 for CCOc1nc(N2C[C@H]3C(=O)N(C)C(=N)N[C@@]3(c3ccc(Cl)s3)C2)nc(CC)c1F .
output: 5.14

input: Tell me the measured pIC50 of COc1nc(N2C[C@H]3C(=O)N(C)C(=N)N[C@@]3(c3ccc(Cl)s3)C2)nc(C)c1F , please.
output: 4.69

input: Entry Cc1nc(N2C[C@H]3C(=O)N(C)C(=N)N[C@@]3(c3ccc(Cl)s3)C2)nc(C2CC2)c1F has what pIC50?
output: 4.72

====

# TARGET OR TEST SYSTEM: CYP2C9 (Homo sapiens)
# Construct: human liver microsomes (0.4 mg/ml); from tissue; host or cells: human liver microsomes
# PROTOCOL: CYP inhibition assay, human liver microsomes, CYP2C9
# Assay type: in vitro ADME
# CONDITION LABEL: 30 min pre-incubation with NADPH, read-out: CYP 2C9 IC50 pre
Entries annotated with measured IC50

input: Lookup: IC50 / CYP2C9 (Homo sapiens) / Cc1nc(N2C[C@H]3C(=O)N(C)C(=N)N[C@@]3(c3cc(C#N)cs3)C2)nc(C2CC2)c1F
output: > 30 µM

input: Query IC50 on CYP2C9 (Homo sapiens) for Cc1nc(N2C[C@H]3C(=O)N(C)C(=N)N[C@@]3(c3ccc(C#N)s3)C2)nc(C)c1F
output: > 30 µM

input: What reported IC50 corresponds to Cc1nc(N2C[C@H]3C(=O)N(C)C(=N)N[C@@]3(c3ccc(Cl)s3)C2)nc(C)c1F on CYP2C9 (Homo sapiens)?
output: > 30 µM

====

# TARGET OR TEST SYSTEM: hERG (Homo sapiens, UniProt Q12809)
# Construct: expressed in transfected cells; host or cells: CHO cells (hERG-CHO)
# Sequence (Q12809 whole entry): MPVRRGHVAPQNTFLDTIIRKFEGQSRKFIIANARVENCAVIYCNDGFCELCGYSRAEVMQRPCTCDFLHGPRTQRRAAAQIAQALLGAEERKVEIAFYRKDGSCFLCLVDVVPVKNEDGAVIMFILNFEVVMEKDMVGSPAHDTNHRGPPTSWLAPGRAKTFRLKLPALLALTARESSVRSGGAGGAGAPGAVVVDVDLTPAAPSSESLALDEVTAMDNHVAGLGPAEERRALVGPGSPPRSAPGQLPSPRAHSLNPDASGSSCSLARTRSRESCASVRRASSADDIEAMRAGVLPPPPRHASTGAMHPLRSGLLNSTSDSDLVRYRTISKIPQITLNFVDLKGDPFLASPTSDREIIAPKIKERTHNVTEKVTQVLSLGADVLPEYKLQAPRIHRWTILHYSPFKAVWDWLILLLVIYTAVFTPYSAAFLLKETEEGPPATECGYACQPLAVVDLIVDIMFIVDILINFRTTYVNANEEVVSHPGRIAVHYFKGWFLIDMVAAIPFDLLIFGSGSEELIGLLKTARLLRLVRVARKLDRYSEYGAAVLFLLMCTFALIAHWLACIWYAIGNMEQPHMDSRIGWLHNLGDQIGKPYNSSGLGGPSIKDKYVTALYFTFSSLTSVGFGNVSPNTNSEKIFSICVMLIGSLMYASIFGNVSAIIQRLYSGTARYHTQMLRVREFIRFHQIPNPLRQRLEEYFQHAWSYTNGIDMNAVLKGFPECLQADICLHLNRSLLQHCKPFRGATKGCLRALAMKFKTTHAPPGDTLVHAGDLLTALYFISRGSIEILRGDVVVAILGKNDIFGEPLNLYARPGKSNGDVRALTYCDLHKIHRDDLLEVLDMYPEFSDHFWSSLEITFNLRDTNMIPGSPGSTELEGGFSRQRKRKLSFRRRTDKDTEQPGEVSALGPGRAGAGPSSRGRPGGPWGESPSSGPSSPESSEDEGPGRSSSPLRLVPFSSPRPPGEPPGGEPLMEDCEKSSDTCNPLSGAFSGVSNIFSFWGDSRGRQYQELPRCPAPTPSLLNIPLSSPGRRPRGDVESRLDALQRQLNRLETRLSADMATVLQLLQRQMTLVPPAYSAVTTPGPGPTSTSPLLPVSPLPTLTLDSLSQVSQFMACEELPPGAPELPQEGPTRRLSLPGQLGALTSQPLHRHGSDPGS
# PROTOCOL: hERG rubidium efflux in hERG-CHO cells
# Assay type: cell-based
# CONDITION LABEL: CHO cells that express hERG (hERG-CHO), pH 7.4, 5 uG/mL, read-out: HERG Rb efflux % Inhib 5 uG/mL
# Experimental: The base solution for the rubidium efflux studies was 144 mM NaCl, 20 mM HEPES-NaOH (pH 7.4), 2 mM CaCl2, 1 mM MgCl2, and 11 mM glucose. To prepare the rubidium loading buffer 5.4 mM RbCl was added. The wash buffer was supplemented with 5.4 mM KCl. […] hERG-CHO cells were plated into 96-well flat-bottom dishes and returned to the incubator for 24 hours. […] Supernatants were then collected and analyzed for rubidium content using automated flame atomic absorbance spectroscopy (ICR-8000, Aurora Biosciences). […]
RECORDED METRIC: inhibition at 30 min, 5 uG/mL (%)
Supply the numeric figure in %, leaving out any unit text.

Here's what some known entries look like.
CCCc1nc(N2C[C@H]3C(=O)N(C)C(=N)N[C@@]3(c3ccc(Cl)s3)C2)nc(OC)c1F    65
Cc1nc(N2C[C@H]3C(=O)N(C)C(=N)N[C@@]3(c3ccc(C#N)s3)C2)nc(C)c1F    3
Cc1nc(N2C[C@H]3C(=O)N(C)C(=N)N[C@@]3(c3ccc(Cl)s3)C2)nc(C)c1F    6

Next up:
input: Form field: reported inhibition at 30 min, 5 uG/mL of [H]/N=C1\N[C@@]2(c3ccc(C#N)s3)CN(c3nc(C)c(F)c(OC)n3)C[C@H]2C(=O)N1C
output: 10
